# MEASUREMENT TARGET: T1, human FLT3 (hFLT3) (human, UniProt P36888 27-543)
# T1 construct: also called huFlt3; Fms-Like Tyrosine Kinase 3
# T1 sequence (looked up): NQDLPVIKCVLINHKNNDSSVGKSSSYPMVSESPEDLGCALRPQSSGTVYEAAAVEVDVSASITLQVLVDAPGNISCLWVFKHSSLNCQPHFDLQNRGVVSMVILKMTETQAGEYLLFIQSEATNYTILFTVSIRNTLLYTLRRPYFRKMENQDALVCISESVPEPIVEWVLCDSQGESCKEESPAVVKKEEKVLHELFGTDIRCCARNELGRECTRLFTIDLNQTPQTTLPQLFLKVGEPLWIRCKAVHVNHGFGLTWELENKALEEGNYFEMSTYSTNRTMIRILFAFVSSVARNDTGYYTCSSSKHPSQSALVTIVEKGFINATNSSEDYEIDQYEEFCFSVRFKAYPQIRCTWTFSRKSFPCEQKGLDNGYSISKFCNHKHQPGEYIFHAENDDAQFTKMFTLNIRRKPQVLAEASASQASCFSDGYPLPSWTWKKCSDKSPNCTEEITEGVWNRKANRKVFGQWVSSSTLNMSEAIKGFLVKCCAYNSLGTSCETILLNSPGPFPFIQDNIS
# TEST PROTOCOL: SPR (Biacore T200), 37 C; IgG captured on anti-human Fc, hFLT3 as analyte
# reported t1/2; entries follow
State the answer as a number, implicitly in min.

For record P7F9 (IgG format) (antibody, V domains shown, IgG format, captured by anti-human Fc) VH: EVQLLESGGGLVQPGGSLRLSCAASGFTFSSYAMSWVRQAPGKGLEWVSAIGGSGGSTYYADSVKGRFTISRDNSKNTLYLQMNSLRAEDTAMYYCARDYYAFSDPAYGGMDVWGQGTLVTVSS VL: NFMLTQPHSVSESPGKTVTISCTRSSGSIASNYVQWYQQKPGQAPVLVVYDDSDRPSGIPERFSGSNSGNTATLTISRVEAGDEADYYCQVWDSSSDHWVFGGGTKLTVL the listed t1/2 is 8.9

For record P8B6 (IgG format) (antibody, V domains shown, IgG format, captured by anti-human Fc) VH: QVQLVQSGAEVKKPGSSVKVSCKASGGTFSSYAVSWVRQAPGQGLEWMGGIIPIFGIANYAQKFQGRVTITADTSTSTAYMELSSLRSEDTAVYYCAIEGIGGDLRYDGYDAWGQGTLVTVSS VL: EIVLTQSPGTLSLSPGERATLSCRASQSVSHSYLAWYQQKPGQAPRLLIYGASFRAAGIPDRFSGSGSGTDFTLTISRLEPEDFAVYYCQQYGSDPYTFGQGTKVEIK the listed t1/2 is 51

For record P1B4 (IgG format) (antibody, V domains shown, IgG format, captured by anti-human Fc) VH: QVQLVQSGAEVKKPGSSVKVSCKASGGVFSRYALSWVRQAPGQGLEWMGGIIPMLGFANYAQKFQGRVTITADESTSTAYMELSSLRSEDTAVYYCATLDFGALDYWGQGTLVTVSS VL: EIVLTQSPGTLSLSPGERATLSCRASQSVPNEQLAWYQQKPGQAPRLLIYDASSRATGIPDRFSGSGSGTDFTLTISRLEPEDFAVYYCQQYGSPPLTFGQGTKVEIK the listed t1/2 is 2

For record P1A5 (IgG format) (antibody, V domains shown, IgG format, captured by anti-human Fc; the entry printed as P1A5 is used) VH: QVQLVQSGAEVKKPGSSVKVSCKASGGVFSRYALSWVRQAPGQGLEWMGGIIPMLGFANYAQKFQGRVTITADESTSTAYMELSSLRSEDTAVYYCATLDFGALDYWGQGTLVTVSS VL: EIVLTQSPGTLSLSPGERATLSCRASQAVDSSDLAWYQQKPGQAPRLLIYDAYTRPSGIPDRFSGSGSGTDFTLTISRLEPEDFAVYYCQQYGSSPLTFGGGTKLEIK the listed t1/2 is 33

For record P5A3 (IgG format) (antibody, V domains shown, IgG format, captured by anti-human Fc) VH: QVQLVQSGAEVKKPGSSVKVSCKASGGTFSSYYIGWVRQAPGQGLEWMGGIIPWFGTANYAQKFQGRVTITADKSTNTAYMELSSLRSEDTAVYYCAADHHDSPSGYTSGGFDVWGQGTLVTVSS VL: QSALTQPASVSGSPGQSITISCTGTSSDVGGYNYVSWYQQHPGKAPKLMIYEVSKRPSGVPDRFSGSKSGNTASLTVSGLQAEDEADYYCSSYAGSNTVVFGGGTKLTVL the listed t1/2 is 1.2
